tested-system: human cannabinoid receptor type 1 (CB1) (human, UniProt P21554 1-472)
Sequence (P21554 whole entry): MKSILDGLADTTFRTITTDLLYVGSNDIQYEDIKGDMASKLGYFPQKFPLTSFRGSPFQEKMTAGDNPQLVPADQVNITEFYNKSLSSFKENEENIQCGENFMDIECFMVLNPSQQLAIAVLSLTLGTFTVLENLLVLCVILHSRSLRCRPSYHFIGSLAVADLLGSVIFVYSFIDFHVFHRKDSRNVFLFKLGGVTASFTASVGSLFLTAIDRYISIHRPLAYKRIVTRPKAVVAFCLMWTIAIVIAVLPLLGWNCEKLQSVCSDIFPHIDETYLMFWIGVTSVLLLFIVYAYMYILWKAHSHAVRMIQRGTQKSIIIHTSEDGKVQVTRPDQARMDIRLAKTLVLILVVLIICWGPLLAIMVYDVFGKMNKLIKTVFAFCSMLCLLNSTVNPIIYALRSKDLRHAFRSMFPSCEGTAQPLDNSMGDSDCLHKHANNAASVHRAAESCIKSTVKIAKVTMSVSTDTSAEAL
assay: cell-based or functional assay
P-ERK IC50 (nM) Data Set 1 values for the binders below.
Report as a plain number; the unit nM is understood.

binder	P-ERK IC50 (nM) Data Set 1
M3 mouse anti-huCB-1 antibody (antibody, V domains shown) VH: QVQLQQSGPELVRPGVSVKISCKGSGYEFTDYALHWVKQSHAETLEWIGLITTYYGDTNYNQKFKGKATMTVDKSSSTAYMELARLTSEDSAIYYCARGGYYYGTDYRYFDVWGAGTTVTVSS VL: DILLTQSPAILSVSPGERVSFSCRASQSIGTNIHWYQQRPNGSPRLLIKYASESISGIPSRFSGSGSGSDFTLSINSVESEDIADYYCQQSITWPLTFGAGTKLELK	296
M2 mouse anti-huCB-1 antibody (antibody, V domains shown) VH: EVQLQQSGPELVKPGTSVKISCKASGYTFTDYNMHWVKLGKSLEWIGYFYPDDGGSGYNQKFKGKATLTIDKSSSTAYMELHSLTSEDSAVYYCARGYGNSWGTYWGQGTLVTVSA VL: EIVLTQSPTTMAASPGEKITITCSASSRISSNYLYWYQQKPGFSPKLLIYRTSNLASGVPARFSGSGSGTSYSLTIGTMEAEDVATYYCQQGSSIPYTFGGGTKLEIK	219

What value of P-ERK IC50 (nM) Data Set 1 has been recorded for this entry: M5 mouse anti-huCB-1 antibody (antibody, V domains shown, The humanized M5-H1 and M5-H2 carry the CDRs of the un-numbered VL, so that one may be the functional light chain) VH: QVHLQQSGAELVRPGSSVKISCKASGYEFSYYWMNWVKQRPGQGHEWIGQIYPGDGDTNYNGKFKGKATLTADKSSSTAYMQLSSLTSEDSAVYFCARGREAAWFAYWGQGTLVTVSA VL: DIVLAQSPASLAVSLGQRATISCRASQSVSSFRYSYLHWYQQKPGQPPRLLIKYASNLESGVPARFSGSGSGTDFTLNIHPVEEEDTATYFCQHSWEIPFTFGSGTKLEIKR
191

From: patent US20220396620A1
